- TEST PROTOCOL: Log BB screen: brain compound level and log BB in mice
- Format: in vivo
- MEASUREMENT SETUP: single i.v. injection
MEASUREMENT KIND: logBB mouse 1 h after i.v. injection
# print the numeric value only

Task: Entry CCCOc1ccc(C2C(=O)NC(=O)N2c2ccc3[nH]cnc3c2)cc1 (racemic) : reported logBB mouse 1 h after i.v. injection = ?
Result: −1.6

Task: Queued: `O=C1NC(=O)C2(Cc3ccccc3C2)N1c1ccc2[nH]cnc2c1`
Result: −1.2

Task: Param item: O=C1NC(=O)N(c2ccc3[nH]cnc3c2)C1c1ccc(Cl)c(C(F)(F)F)c1 (stereo not shown)
Result: −2.5

Task: Thanks! And Cc1ccc(O)c(C2C(=O)NC(=O)N2c2ccc3[nH]cnc3c2)c1 (stereo not shown) ?
Result: −1.42

Task: Same read-out for O=C1NC(=O)N(c2ccc3[nH]cnc3c2)C1c1ccc2nsnc2c1 (stereo not shown) ?
Result: −0.67

Task: Then this compound: O=C1NC(=O)N(c2ccc3[nH]cnc3c2)C1c1ccc(Cl)cc1 (stereo not shown)
Result: −1.4

Task: Repeat with O=C1NC(=O)N(c2ccc3[nH]cnc3c2)C1c1ccccc1Cl (stereo not shown)
Result: −1.6
